# Test system: PPARg:RXRa 30nM:10nM, anti-RXR (NR concentration 30 nM, RXRa partner concentration 10 nM)
# test name: PBM binding z-score (relative to random genomic background probes); higher = stronger binding; sequences stand for … in GC…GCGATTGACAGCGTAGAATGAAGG
readout name: PBM binding z-score
Reply briefly: the number, and no unit.

Solved cases below.
{"sequence entry": "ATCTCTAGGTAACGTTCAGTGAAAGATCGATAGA", "target or test system": "PPARg:RXRa 30nM:10nM, anti-RXR (NR concentration 30 nM, RXRa partner concentration 10 nM)", "recorded value": 0.317}
{"sequence entry": "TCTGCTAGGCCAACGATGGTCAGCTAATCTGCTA", "target or test system": "PPARg:RXRa 30nM:10nM, anti-RXR (NR concentration 30 nM, RXRa partner concentration 10 nM)", "recorded value": 1.12}
{"sequence entry": "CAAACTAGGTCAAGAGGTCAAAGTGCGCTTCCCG", "target or test system": "PPARg:RXRa 30nM:10nM, anti-RXR (NR concentration 30 nM, RXRa partner concentration 10 nM)", "recorded value": 7.04}

Inquiry: Check the records and state PBM binding z-score for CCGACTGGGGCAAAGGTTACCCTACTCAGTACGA
Reply text: 8.18

Inquiry: Give me measured PBM binding z-score, please, for this sequence: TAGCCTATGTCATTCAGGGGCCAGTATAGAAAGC
Reply text: -0.271

Inquiry: Quickly give me recorded PBM binding z-score for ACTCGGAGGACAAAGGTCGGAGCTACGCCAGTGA
Reply text: 3.54

Inquiry: For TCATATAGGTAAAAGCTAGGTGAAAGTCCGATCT , write its PBM binding z-score.
Reply text: 4

Inquiry: Complete the entry with PBM binding z-score for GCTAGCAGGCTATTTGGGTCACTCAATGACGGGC
Reply text: -0.338

###

# Test system: PPARg:RXRa 90nM:30nM, anti-RXR (NR concentration 90 nM, RXRa partner concentration 30 nM)
# test name: PBM binding z-score (relative to random genomic background probes); higher = stronger binding; sequences stand for … in GC…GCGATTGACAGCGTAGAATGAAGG
In this section, each of the sequences is paired with its reported PBM binding z-score.
Lab note: write the figure by itself, no unit.

{"sequence entry": "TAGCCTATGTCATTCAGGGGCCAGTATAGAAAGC", "PBM binding z-score": -0.159}

Inquiry: Using known records, supply PBM binding z-score for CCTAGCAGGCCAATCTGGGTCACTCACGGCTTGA
Reply text: 1.18

Inquiry: Provide only the value of recorded PBM binding z-score for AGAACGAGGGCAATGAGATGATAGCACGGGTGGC
Reply text: 0.528

Inquiry: Input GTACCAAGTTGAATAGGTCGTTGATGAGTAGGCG , output reported PBM binding z-score.
Reply text: -0.278

Inquiry: Retrieve PBM binding z-score measured for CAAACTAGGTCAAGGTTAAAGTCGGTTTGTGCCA and print it.
Reply text: 9.18

Inquiry: Supply reported PBM binding z-score belonging to this sequence: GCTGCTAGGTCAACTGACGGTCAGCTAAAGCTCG
Reply text: 2.14

Inquiry: Tell me PBM binding z-score reported for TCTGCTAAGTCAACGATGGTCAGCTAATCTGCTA
Reply text: 0.924

Inquiry: Provide measured PBM binding z-score value, entry: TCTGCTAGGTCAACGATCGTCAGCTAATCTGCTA
Reply text: 2.76
